ASSAY METRIC: pIC50
Just the number, please; pIC50 means minus log10 of the concentration in mol/L.

Query block: Record Cc1c(Cc2ccccc2)c(=O)oc2cc(OS(C)(=O)=O)ccc12 : what is its pIC50 with Retinal dehydrogenase 2 (Homo sapiens, UniProt O94788)?
Result block: 4.96

Query block: Record Cc1oc2cc3oc(=O)c4c(c3cc2c1C)CCCC4 : what is its pIC50 with Retinal dehydrogenase 2 (Homo sapiens, UniProt O94788)?
Result block: 7.19

Query block: Record O=c1c(-c2ccc(O)cc2)coc2cc(O[C@@H]3O[C@H](CO)[C@@H](O)[C@H](O)[C@H]3O)ccc12 : what is its pIC50 with Retinal dehydrogenase 2 (Homo sapiens, UniProt O94788)?
Result block: 5.35

Query block: Record Cc1oc2cc3oc(=O)c(CCC(=O)N4CCCCC4)c(C)c3cc2c1C : what is its pIC50 with Retinal dehydrogenase 2 (Homo sapiens, UniProt O94788)?
Result block: 5.80

Query block: Record CCCc1c(C)c2cc3c(C)c(C)oc3cc2oc1=O : what is its pIC50 with Retinal dehydrogenase 2 (Homo sapiens, UniProt O94788)?
Result block: 6.52

Query block: Record CCCc1cc(=O)oc2cc3oc(C)c(C)c3cc12 : what is its pIC50 with Retinal dehydrogenase 2 (Homo sapiens, UniProt O94788)?
Result block: 7.16

---

# PROTOCOL: Lipophilicity, log P of the compound
# Format: physicochemical
# EXPERIMENTAL SETUP: octanol/water
ASSAY METRIC: logP
Please give only the number in your answer, with no unit.

Query block: Would you kindly share the measured logP for C=CCOc1ccc2c(C)cc(=O)oc2c1 ?
Result block: 3.01

Query block: Would you kindly share the measured logP for Cc1oc2cc3oc(=O)c4c(c3cc2c1C)CCC4 ?
Result block: 4.26

Query block: Would you kindly share the measured logP for CC(=O)C(C)Oc1ccc2c(c1)oc(=O)c1ccccc12 (stereo not drawn) ?
Result block: 2.64

Query block: Would you kindly share the measured logP for Cc1cc(=O)oc2cc(OCC#N)ccc12 ?
Result block: 1.22

Query block: Would you kindly share the measured logP for CC(=O)C(C)Oc1ccc2c(C)cc(=O)oc2c1 (stereo not drawn) ?
Result block: 1.72

Query block: Would you kindly share the measured logP for Cc1oc2c(C)c3oc(=O)c(C)c(C)c3cc2c1C ?
Result block: 4.36

Query block: Would you kindly share the measured logP for Cc1c(CCC(=O)O)c(=O)oc2cc(O)ccc12 ?
Result block: 1.82

Query block: Would you kindly share the measured logP for Cc1c(Cc2ccccc2)c(=O)oc2cc(OS(C)(=O)=O)ccc12 ?
Result block: 3.44

Query block: Would you kindly share the measured logP for Cc1cc(=O)oc2cc3c(cc12)CCC(=O)O3 ?
Result block: 2.11

Query block: Would you kindly share the measured logP for C/C(=N\O)c1cc2cc(Br)ccc2oc1=O ?
Result block: 2.1

Query block: Would you kindly share the measured logP for CCCc1c(C)c2cc3c(C)coc3cc2oc1=O ?
Result block: 4.47

Query block: Would you kindly share the measured logP for Cc1cc(=O)oc2cc(OCC(=O)Nc3ccccc3)ccc12 ?
Result block: 2.85

Query block: Would you kindly share the measured logP for Cc1oc2cc3oc(=O)c(CCC(=O)N4CCCCC4)c(C)c3cc2c1C ?
Result block: 4.06

Query block: Would you kindly share the measured logP for Cc1oc2cc3oc(=O)c4ccccc4c3cc2c1C ?
Result block: 3.89

Query block: Would you kindly share the measured logP for Cc1cc(=O)oc2cc(OC(C)C(=O)O)ccc12 (stereo not drawn) ?
Result block: 1.63

Query block: Would you kindly share the measured logP for Cc1c(C)c2cc3c(C(C)(C)C)coc3cc2oc1=O ?
Result block: 3.94

Query block: Would you kindly share the measured logP for CC(=O)COc1ccc2c(C)cc(=O)oc2c1 ?
Result block: 1.37

Query block: Would you kindly share the measured logP for Cc1cc2oc(=O)cc(C)c2cc1NC(=O)C(C)C ?
Result block: 2.05

Query block: Would you kindly share the measured logP for Cc1c(C)c2cc3c4c(oc3cc2oc1=O)CCCC4 ?
Result block: 4.48

Query block: Would you kindly share the measured logP for Cc1coc2cc3oc(=O)c(Cc4ccccc4)c(C)c3cc12 ?
Result block: 4.98

Query block: Would you kindly share the measured logP for CCCc1c(C)c2cc3c(C)c(C)oc3cc2oc1=O ?
Result block: 4.92

Query block: Would you kindly share the measured logP for CCCc1cc(=O)oc2cc3oc(C)c(C)c3cc12 ?
Result block: 4.47

Query block: Would you kindly share the measured logP for COc1ccc2c(C)cc(=O)oc2c1 ?
Result block: 2.46

---

I'd be grateful if you could share measured Activity for these entries.
# TARGET UNDER TEST: Aldehyde dehydrogenase, mitochondrial (Homo sapiens) (UniProt P05091)
# Sequence (P05091 whole entry): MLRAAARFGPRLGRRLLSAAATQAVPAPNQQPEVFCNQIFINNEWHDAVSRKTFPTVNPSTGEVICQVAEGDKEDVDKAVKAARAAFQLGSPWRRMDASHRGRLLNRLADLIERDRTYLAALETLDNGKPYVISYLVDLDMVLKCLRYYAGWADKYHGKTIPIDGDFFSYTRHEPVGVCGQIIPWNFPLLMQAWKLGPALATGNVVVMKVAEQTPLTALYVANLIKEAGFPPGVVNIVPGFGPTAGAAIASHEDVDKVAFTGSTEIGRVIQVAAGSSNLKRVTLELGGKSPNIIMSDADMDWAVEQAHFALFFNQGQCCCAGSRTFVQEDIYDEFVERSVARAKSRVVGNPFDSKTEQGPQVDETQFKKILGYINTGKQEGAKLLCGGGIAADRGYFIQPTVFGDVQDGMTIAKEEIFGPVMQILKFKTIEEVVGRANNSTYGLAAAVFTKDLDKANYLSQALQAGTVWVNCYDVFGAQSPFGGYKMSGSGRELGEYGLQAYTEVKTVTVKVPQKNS
# PROTOCOL: Inhibition of full length recombinant human ALDH2 expressed in Escherichia coli assessed as remaining dehydrogenase activity by measuring NAD(P)H level at 10 uM preincubated for 2 mins followed by addition of propionaldehyde as substrate in presence of NAD+ by spectrophotometric method
Return type: number; implicit unit %.

Query block: Record Cc1oc2cc3oc(=O)c(CCC(=O)NCc4ccccc4)c(C)c3cc2c1C : what is its Activity with Aldehyde dehydrogenase, mitochondrial (Homo sapiens) (UniProt P05091)?
Result block: 69.8

Query block: Record CC(C)=CCOc1ccc2c(C)cc(=O)oc2c1 : what is its Activity with Aldehyde dehydrogenase, mitochondrial (Homo sapiens) (UniProt P05091)?
Result block: 93.3

Query block: Record CC(=O)COc1ccc2c(C)cc(=O)oc2c1 : what is its Activity with Aldehyde dehydrogenase, mitochondrial (Homo sapiens) (UniProt P05091)?
Result block: 99.1

Query block: Record Cc1oc2cc3oc(=O)c4c(c3cc2c1C)CCCC4 : what is its Activity with Aldehyde dehydrogenase, mitochondrial (Homo sapiens) (UniProt P05091)?
Result block: 16.3

Query block: Record C/C(=N\O)c1cc2cc(Br)ccc2oc1=O : what is its Activity with Aldehyde dehydrogenase, mitochondrial (Homo sapiens) (UniProt P05091)?
Result block: 48.2
